Test system: biotinyl-Phe-oxazolone
Assay: self-aminoacylation, catalytic enhancement (BFO) (fold over background); higher = more active; k-Seq, kA / k0A0; sequences stand for … in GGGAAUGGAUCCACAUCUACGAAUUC…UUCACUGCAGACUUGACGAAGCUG
Fewer inactive variants are shown than the library holds.
Could you label it rule met if measured self-aminoacylation is 40 or higher, and rule not met otherwise?

Task: Record AUUCAUCUAGGUCAUCGGGUA [Fam2.2 aminoacylation ribozyme variant] ; criterion: self-aminoacylation no lower than 40. Met?
Result: rule not met

Task: Does self-aminoacylation meet or surpass 40 for AUUCCCCUAGGUCAGCGGGUG [Fam2.2 aminoacylation ribozyme variant] ?
Result: rule met

Task: Reported self-aminoacylation at or above 40? CCACACUUAAAGCAAUCGGCC [Fam1B.1 aminoacylation ribozyme variant]
Result: rule not met

Task: Does the sequence AGGUUUGUUAAUAGUCGCAAG [Fam3.1 aminoacylation ribozyme variant] have recorded self-aminoacylation that is 40 or more?
Result: rule not met

Task: Record AUUACGAUGGUCAUCGAGUGA [Fam2.1 aminoacylation ribozyme variant] ; criterion: self-aminoacylation no lower than 40. Met?
Result: rule not met

Task: Please indicate if the recorded self-aminoacylation for CCGCACUUCAAGCCAUCGGUC [Fam1B.1 aminoacylation ribozyme variant] meets or exceeds 40.
Result: rule not met

Task: Item AUUCACCUAGGUCAUCAAGUG [Fam2.2 aminoacylation ribozyme variant] with self-aminoacylation of 40 or above?
Result: rule not met

Task: Could you tell me if the measured self-aminoacylation of AUUACCCUCGUAAUCGAGUGA [Fam2.1 aminoacylation ribozyme variant] reaches 40 or more?
Result: rule met

Task: Hi, just wondering whether CCACACAUCAAGCACUCGGUC [Fam1B.1 aminoacylation ribozyme variant] shows self-aminoacylation of 40 or higher.
Result: rule not met

Task: // inclusive: self-aminoacylation at least 40? input: CCACACUCCAAGCAAUCGGAC [Fam1B.1 aminoacylation ribozyme variant]
Result: rule not met

Task: Textbook exercise: given the entry CCUCAGUUCAAGCAAUCGGUC [Fam1B.1 aminoacylation ribozyme variant] , state whether its self-aminoacylation is greater than or equal to 40.
Result: rule not met

Task: Exam item: decide whether the reported self-aminoacylation for GUACUUCGAACAAUCGGUCUG [Fam1A.1 aminoacylation ribozyme variant] is at least 40.
Result: rule not met

Task: Textbook exercise: given the entry AAGUUUGCUAACAGUCGCAGG [Fam3.1 aminoacylation ribozyme variant] , state whether its self-aminoacylation is greater than or equal to 40.
Result: rule not met

Task: Does CUACUUCAAUCAAACGGUCUG [Fam1A.1 aminoacylation ribozyme variant] have a reported self-aminoacylation of at least 40?
Result: rule not met

Task: Hi team, for AUUCUCCUAUGUCAUCGGGUG [Fam2.2 aminoacylation ribozyme variant] , is the recorded self-aminoacylation at or above 40?
Result: rule met

Task: Does the reported self-aminoacylation for AUUACCCUGGUCUUCGCGUGA [Fam2.1 aminoacylation ribozyme variant] fall at or above the 40 mark?
Result: rule met

Task: Does the reported self-aminoacylation for AUUACCCUGGUCACGGAGUGA [Fam2.1 aminoacylation ribozyme variant] fall at or above the 40 mark?
Result: rule not met

Task: Tell me whether self-aminoacylation is at least 40 here: AAGUGUGCUAAUAGUCACAAG [Fam3.1 aminoacylation ribozyme variant]
Result: rule not met

Task: Is it the case that CUUCUUCAAACAAUCCGUCUG [Fam1A.1 aminoacylation ribozyme variant] has self-aminoacylation reaching or exceeding 40?
Result: rule not met

Task: Threshold query (self-aminoacylation >= 40) on GUUACCCUGGGCAUCGAGUGA [Fam2.1 aminoacylation ribozyme variant]
Result: rule met

Task: Hi, just wondering whether ACUCACCAAGGUCAUCGGGUG [Fam2.2 aminoacylation ribozyme variant] shows self-aminoacylation of 40 or higher.
Result: rule met

Task: Decide: self-aminoacylation of AUUCAACUAGGUAAUCGGGUG [Fam2.2 aminoacylation ribozyme variant] >= 40?
Result: rule not met

Task: Assess whether reported self-aminoacylation for AUUCCCCUAGGUCAACGGGUG [Fam2.2 aminoacylation ribozyme variant] sits at 40 or higher.
Result: rule met

Task: Determine whether this sequence has self-aminoacylation no lower than 40: AUUCACCUCGGUCAUCGCGUG [Fam2.2 aminoacylation ribozyme variant]
Result: rule met

Task: Textbook exercise: given the entry AUUACCCUGCUCGUCGAGUGA [Fam2.1 aminoacylation ribozyme variant] , state whether its self-aminoacylation is greater than or equal to 40.
Result: rule not met

Task: Has CUACUCUUCAAGCAAUCGGUC [Fam1B.1 aminoacylation ribozyme variant] a recorded self-aminoacylation greater than or equal to 40?
Result: rule not met

Task: Is it the case that AACUUCGCUAAUAGUCGCAAG [Fam3.1 aminoacylation ribozyme variant] has self-aminoacylation reaching or exceeding 40?
Result: rule not met

Task: Tell me whether self-aminoacylation is at least 40 here: ACUACCCAGGUCAUCGAGUGA [Fam2.1 aminoacylation ribozyme variant]
Result: rule not met

Task: Textbook exercise: given the entry AUUCACCCAGGUCCUCGGGUG [Fam2.2 aminoacylation ribozyme variant] , state whether its self-aminoacylation is greater than or equal to 40.
Result: rule not met

Task: Is self-aminoacylation for CUACUUCAAAGAAUCGGUCUC [Fam1A.1 aminoacylation ribozyme variant] at or above 40?
Result: rule not met

Task: Could you please find out whether CUGCUUCAAACAAUCGGUGUG [Fam1A.1 aminoacylation ribozyme variant] has self-aminoacylation that meets 40 or exceeds it?
Result: rule met

Task: Check the entry UGUCACCUAGGUCAUCGGGUG [Fam2.2 aminoacylation ribozyme variant] : does self-aminoacylation equal or exceed 40?
Result: rule not met

Task: Assess whether reported self-aminoacylation for CCACACUUCAAGCAUUUGGUC [Fam1B.1 aminoacylation ribozyme variant] sits at 40 or higher.
Result: rule not met

Task: Decide: self-aminoacylation of AUUACCCUGGUCAUCGAGUGA [Fam2.1 aminoacylation ribozyme variant] >= 40?
Result: rule met

Task: Entry AUUACCCUGGUCAUCGAGUUC [Fam2.1 aminoacylation ribozyme variant] : is its self-aminoacylation no less than 40?
Result: rule not met

###

Test system: biotinyl-Leu-oxazolone
Assay: self-aminoacylation, catalytic enhancement (BLO) (fold over background); higher = more active; k-Seq, kA / k0A0; sequences stand for … in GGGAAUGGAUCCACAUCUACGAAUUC…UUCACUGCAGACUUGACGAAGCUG
Variants at the floor of the assay were thinned out.
Assign 1.0 to entries whose self-aminoacylation meets or exceeds 5; assign 0.0 to the rest.

Task: Would you say CUACUUCGAACAACCGGUCUG [Fam1A.1 aminoacylation ribozyme variant] shows self-aminoacylation at minimum 5?
Result: 0.0

Task: Evaluate CCACACUUCAAGUAGUCGGUC [Fam1B.1 aminoacylation ribozyme variant] : self-aminoacylation at minimum 5?
Result: 0.0

Task: Determine whether measured self-aminoacylation meets or exceeds 5 for AAGUUCGCUAAUAUUCGCAAG [Fam3.1 aminoacylation ribozyme variant]
Result: 0.0

Task: Has AAUCACCUAGGUCAUCGGGUU [Fam2.2 aminoacylation ribozyme variant] a recorded self-aminoacylation greater than or equal to 5?
Result: 1.0

Task: Say whether CCACACUUCCAGCAAUCGGUG [Fam1B.1 aminoacylation ribozyme variant] shows self-aminoacylation of 5 or more.
Result: 0.0

Task: Record AUCACCCUGGUCCUCGAGUGA [Fam2.1 aminoacylation ribozyme variant] ; criterion: self-aminoacylation no lower than 5. Met?
Result: 1.0

Task: Quick check, self-aminoacylation >= 5? AUUCACCUAGGUCAUCGGUUA [Fam2.2 aminoacylation ribozyme variant]
Result: 0.0

Task: Tell me whether self-aminoacylation is at least 5 here: CCACCCUUCAAGCAAUCAGUC [Fam1B.1 aminoacylation ribozyme variant]
Result: 0.0

Task: Identify whether the reported self-aminoacylation of the following sequence is 5 or greater: CCACACUUCUAGCAAUUGGUC [Fam1B.1 aminoacylation ribozyme variant]
Result: 0.0

Task: # check: self-aminoacylation of AUUACCCUGGUCAUCGGGUGC [Fam2.1 aminoacylation ribozyme variant] is greater than or equal to 5
Result: 1.0

Task: Given CGACACUUCAAGCAAUCGGCC [Fam1B.1 aminoacylation ribozyme variant] , state whether its self-aminoacylation is at least 5.
Result: 0.0

Task: Answer whether self-aminoacylation of AUUAACCUGGGCAUCGAGUGA [Fam2.1 aminoacylation ribozyme variant] is greater than or equal to 5.
Result: 1.0

Task: Is the recorded value of self-aminoacylation equal to or greater than 5 for this sequence? CUUCUGCAAACAAUCGGUCUG [Fam1A.1 aminoacylation ribozyme variant]
Result: 0.0

Task: Could you tell me if the measured self-aminoacylation of AUCACCUUGGUCAUCGAGUGA [Fam2.1 aminoacylation ribozyme variant] reaches 5 or more?
Result: 1.0

Task: Does AUCCACCUAGGUCAUAGGGUG [Fam2.2 aminoacylation ribozyme variant] have a reported self-aminoacylation of at least 5?
Result: 0.0

Task: Decide: self-aminoacylation of AUUCACCUAGAUCAUUGGGUG [Fam2.2 aminoacylation ribozyme variant] >= 5?
Result: 0.0

Task: Hello, I need to know if AUUAGCCUGGUCCUCGAGUGA [Fam2.1 aminoacylation ribozyme variant] has measured self-aminoacylation not below 5. Thanks!
Result: 1.0

Task: Is reported self-aminoacylation greater than or equal to 5 here: AUUUCCUUGGUCAUCGAGUGA [Fam2.1 aminoacylation ribozyme variant]
Result: 1.0
